# target entity: CDK2/Cyclin E1 (Homo sapiens, UniProt P24941)
# assay overview: CDK2/Cyclin E1 TR-FRET biochemical assay (0.060 mM ATP)
# run conditions: 120 minutes reaction
measured quantity: IC50 (pM)

| molecule | uom | test result |
| --- | --- | --- |
| COCC(C)(C)NC(=O)O[C@H]1CC[C@@H](c2cc(Nc3ccc4c(c3F)CS(=O)(=O)C4)n[nH]2)C1 (relative stereo) | pM | 600 |

[A] CC(C)NC(=O)OC1CCC(c2cc(Nc3ccc4c(c3F)CCS4(=O)=O)n[nH]2)C1 (single isomer, unassigned) [Example 2b]
[B] CCCNC(=O)OC1CCC(c2cc(Nc3ccc4c(c3F)CS(=O)(=O)C4)n[nH]2)C1 (single isomer, unassigned) [Example 9a]
Q) Of the pair A and B , name the member with the lesser recorded IC50. Mark your answer with the label of the selected entry.
A) B

###

# target entity: CDK1/Cyclin B1 (Homo sapiens)
# assay overview: CDK1/Cyclin B1 TR-FRET biochemical assay (0.015 mM ATP)
# run conditions: 120 minutes reaction
pIC50: −log10 of the molar value.
measured quantity: pIC50

| molecule | measured quantity | test result |
| --- | --- | --- |
| CC(C)NC(=O)OC1CCC(c2cc(Nc3ccc4c(c3F)CCS4(=O)=O)n[nH]2)C1 (single isomer, unassigned) [Example 2a] | pIC50 | 6.23 |
| CC(C)NC(=O)OC1CCC(c2cc(Nc3ccc4c(c3F)CCS4(=O)=O)n[nH]2)C1 (single isomer, unassigned) [Example 2b] | pIC50 | 6.68 |

[1] CC1(NC(=O)O[C@H]2CC[C@@H](c3cc(Nc4ccc5c(c4F)CS(=O)(=O)C5)n[nH]3)C2)CC1 (relative stereo)
[2] CC(C)NC(=O)O[C@H]1CC[C@@H](c2cc(Nc3cc4c(cc3F)S(=O)(=O)CC4)n[nH]2)C1 (relative stereo)
Q) Given 1 and 2 , report the one with the higher recorded pIC50. Select an item and report its label.
A) 1
(1: 8.48, 2: 5.94)

###

# target entity: CDK1/Cyclin B1 (Homo sapiens, UniProt P06493)
# Sequence (P06493 whole entry): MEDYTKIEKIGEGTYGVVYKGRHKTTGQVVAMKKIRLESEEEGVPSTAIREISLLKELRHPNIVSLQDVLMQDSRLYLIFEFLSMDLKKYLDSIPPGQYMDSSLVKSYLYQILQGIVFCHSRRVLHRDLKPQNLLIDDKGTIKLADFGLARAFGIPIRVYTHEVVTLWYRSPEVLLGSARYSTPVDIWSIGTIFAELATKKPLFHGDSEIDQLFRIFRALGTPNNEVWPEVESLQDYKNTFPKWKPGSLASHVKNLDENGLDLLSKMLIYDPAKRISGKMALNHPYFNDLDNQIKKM
# Sequence (P14635 whole entry partner): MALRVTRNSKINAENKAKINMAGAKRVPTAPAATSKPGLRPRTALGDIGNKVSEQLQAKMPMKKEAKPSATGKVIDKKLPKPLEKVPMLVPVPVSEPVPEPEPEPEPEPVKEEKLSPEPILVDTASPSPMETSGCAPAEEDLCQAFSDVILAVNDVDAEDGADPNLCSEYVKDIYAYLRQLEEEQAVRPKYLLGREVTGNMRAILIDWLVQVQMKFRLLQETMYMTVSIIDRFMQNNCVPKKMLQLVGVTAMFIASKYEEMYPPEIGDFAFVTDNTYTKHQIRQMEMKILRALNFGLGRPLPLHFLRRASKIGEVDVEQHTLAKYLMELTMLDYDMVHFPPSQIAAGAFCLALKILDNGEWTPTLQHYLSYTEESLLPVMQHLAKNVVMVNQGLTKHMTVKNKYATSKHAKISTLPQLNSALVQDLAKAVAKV
# assay overview: CDK1/Cyclin B1 TR-FRET biochemical assay (1 mM ATP)
# run conditions: 90 minutes reaction
pIC50: −log10 of the molar value.
measured quantity: pIC50

| compound | test result |
| --- | --- |
| CC1(NC(=O)OC2CCC(c3cc(Nc4ccc5c(c4F)CS(=O)(=O)C5)n[nH]3)C2)CCOC1 (single isomer, unassigned) [Example 13c] | 6.68 |

[I] CN(C(=O)O[C@H]1CC[C@@H](c2cc(Nc3ccc4c(c3F)CS(=O)(=O)C4)n[nH]2)C1)C1CCOC1 (relative stereo)
[II] CC1(NC(=O)OC2CCC(c3cc(Nc4ccc5c(c4F)CS(=O)(=O)C5)n[nH]3)C2)CCOC1 (single isomer, unassigned) [Example 13d]
Q) Which value of pIC50 is numerically greater: that of I or that of II ? Your answer should be the label of the entry you select.
A) II

###

# System: HEK-293 cells
# assay overview: HEK-293 cell cytotoxicity detection (CellTiter-Glo)
# Type: cell-based
# run conditions: incubation of 72 h, CellTiter-Glo luminescence, read-out: HEK293 IC50
Measured pIC50 by item
# pIC50: negative log10 of molar concentration; output just the value

Worked examples, 2 compounds total:
| compound | target entity | pIC50 |
| --- | --- | --- |
| CCCNC(=O)OC1CCC(c2cc(Nc3ccc4c(c3F)CS(=O)(=O)C4)n[nH]2)C1 (single isomer, unassigned) [Example 9b] | HEK-293 cells | 5.36 |
| CCNC(=O)OC1CCC(c2cc(Nc3ccc4c(c3F)CS(=O)(=O)C4)n[nH]2)C1 (single isomer, unassigned) [Example 18b] | HEK-293 cells | 6.28 |

Q) Query (compound): CC1(NC(=O)OC2CCC(c3cc(Nc4ccc5c(c4F)CS(=O)(=O)C5)n[nH]3)C2)COC1 (single isomer, unassigned) [Example 15b] ; field requested: pIC50
A) 5.00

###

# target entity: CDK2/Cyclin E1 (Homo sapiens)
# assay overview: CDK2/Cyclin E1 TR-FRET biochemical assay (0.060 mM ATP)
# run conditions: 120 minutes reaction
measured quantity: IC50 (nM)

| molecule | target entity | IC50, nM |
| --- | --- | --- |
| CC(C)NC(=O)O[C@@H]1CC[C@H](c2cc(Nc3ccc4c(c3F)CS(=O)(=O)C4)n[nH]2)C1 (single isomer, unassigned) | CDK2/Cyclin E1 (Homo sapiens) | 0.7 |
| CC1(NC(=O)O[C@H]2CC[C@@H](c3cc(Nc4ccc5c(c4F)S(=O)(=O)CC5)n[nH]3)C2)CC1 (relative stereo) | CDK2/Cyclin E1 (Homo sapiens) | 1.1 |

[I] CC(C)NC(=O)O[C@H]1CC[C@@H](c2cc(Nc3ccc4c(c3)CS(=O)(=O)C4)n[nH]2)C1 (relative stereo)
[II] CCCNC(=O)OC1CCC(c2cc(Nc3ccc4c(c3F)CS(=O)(=O)C4)n[nH]2)C1 (single isomer, unassigned) [Example 9b]
Q) Lab notebook, comparison: I versus II , higher IC50 goes to which? Label of pick, please.
A) I
(I: 1.1 nM, II: 0.7 nM)

###

# target entity: CDK1/Cyclin B1 (Homo sapiens, UniProt P06493)
# assay overview: CDK1/Cyclin B1 TR-FRET biochemical assay (1 mM ATP)
# run conditions: 90 minutes reaction
pIC50: −log10 of the molar value.
measured quantity: pIC50

Below, 2 compounds whose answers are already recorded.
| compound | test result |
| --- | --- |
| O=C(NC1CCC1)O[C@H]1CC[C@@H](c2cc(Nc3ccc4c(c3F)CS(=O)(=O)C4)n[nH]2)C1 (relative stereo) | 6.22 |
| CC(C)(CO)NC(=O)O[C@H]1CC[C@@H](c2cc(Nc3ccc4c(c3F)CS(=O)(=O)C4)n[nH]2)C1 (relative stereo) | 6.74 |

[a] CCN(C)C(=O)O[C@H]1CC[C@@H](c2cc(Nc3ccc4c(c3F)CS(=O)(=O)C4)n[nH]2)C1 (relative stereo)
[b] CC(C)NC(=O)O[C@H]1CC[C@@H](c2cc(Nc3ccc4c(c3F)C[S+]([O-])C4)n[nH]2)C1 (relative stereo)
Q) Lab note: check whether a or b shows the higher recorded pIC50. Please indicate the selected item by its label.
A) a
(a: 6.31, b: 5.47)

###

# target entity: CDK1/Cyclin B1 (Homo sapiens)
# assay overview: CDK1/Cyclin B1 TR-FRET biochemical assay (0.015 mM ATP)
# run conditions: 120 minutes reaction
# Description: Compounds disclosed herein were tested for inhibition of CDK2/Cyclin E1 or CDK1/Cyclin B1 kinase in an assay based on the time-resolved fluorescence-resonance energy transfer (TR-FRET) methodology. […] Plates were incubated at room temperature for 60 minutes, and the TR-FRET signals (ex337 nm, em665 nm/620 nm) were recorded on a PHERAstar FSX plate reader (BMG Labtech). […]
measured quantity: IC50 (nM)

| compound | target entity | IC50, nM |
| --- | --- | --- |
| CC(C)NC(=O)O[C@H]1CC[C@@H](c2cc(Nc3ccc4c(c3)CS(=O)(=O)C4)n[nH]2)C1 (relative stereo) [Example 7] | CDK1/Cyclin B1 (Homo sapiens) | 12 |
| CC[C@H](C)NC(=O)OC1CCC(c2cc(Nc3ccc4c(c3F)CS(=O)(=O)C4)n[nH]2)C1 (stereo in doubt) [Example 10] | CDK1/Cyclin B1 (Homo sapiens) | 5 |
| CC[C@H](C)NC(=O)OC1CCC(c2cc(Nc3ccc4c(c3F)S(=O)(=O)CC4)n[nH]2)C1 (stereo in doubt) [Example 5] | CDK1/Cyclin B1 (Homo sapiens) | 117 |

[I] CC(C)NC(=O)O[C@H]1CC[C@@H](c2cc(Nc3ccc4c(c3F)CS(=O)(=O)C4)n[nH]2)C1 (relative stereo) [Example 8b]
[II] CC(C)NC(=O)OC1CCC(c2cc(Nc3ccc4c(c3F)S(=O)(=O)CC4)n[nH]2)C1 (single isomer, unassigned) [Example 3b]
Q) For the pair I and II , which member has the lower IC50 number? Pick one; state its label.
A) I

###

# target entity: CDK2/Cyclin E1 (Homo sapiens)
# assay overview: CDK2/Cyclin E1 TR-FRET biochemical assay (1 mM ATP)
# run conditions: 90 minutes reaction
measured quantity: IC50 (nM)

[1] Cc1cc2c(cc1Nc1cc([C@@H]3CC[C@H](OC(=O)NC(C)C)C3)[nH]n1)CS(=O)(=O)C2 (relative stereo) [Example 28]
[2] O=C(NC1CCC1)O[C@H]1CC[C@@H](c2cc(Nc3ccc4c(c3F)CS(=O)(=O)C4)n[nH]2)C1 (relative stereo) [Example 12]
[3] O=C(NCC(F)(F)F)O[C@H]1CC[C@@H](c2cc(Nc3ccc4c(c3F)CS(=O)(=O)C4)n[nH]2)C1 (relative stereo) [Example 22]
Q) Arrange items by their IC50 values in increasing order. To answer, arrange all of the labels according to the requested order.
A) 2, 3, 1

[I] CC1(NC(=O)OC2CCC(c3cc(Nc4ccc5c(c4F)CS(=O)(=O)C5)n[nH]3)C2)CCOC1 (single isomer, unassigned) [Example 13c]
[II] CC(C)NC(=O)O[C@H]1CC[C@@H](c2cc(Nc3cc4c(cc3F)CS(=O)(=O)C4)n[nH]2)C1 (relative stereo) [Example 27]
[III] CCN(C)C(=O)O[C@H]1CC[C@@H](c2cc(Nc3ccc4c(c3F)CS(=O)(=O)C4)n[nH]2)C1 (relative stereo) [Example 32]
Q) Arrange items by their IC50 values in increasing order. Answer format: list of labels, ordered as asked.
A) I, III, II

[a] CCNC(=O)OC1CCC(c2cc(Nc3ccc4c(c3F)CS(=O)(=O)C4)n[nH]2)C1 (single isomer, unassigned) [Example 18b]
[b] CC(C)NC(=O)O[C@H]1CC[C@@H](c2cc(Nc3cc4c(cc3F)C[S+]([O-])C4)n[nH]2)C1 (relative stereo) [Example 29]
Q) Lab note: record which item had the higher IC50, a or b . Kindly give the label for the entry you pick.
A) b
